Hey, just so you know, these numbers are from patent US8029764B2.

Please provide measured NC2 (SAGE tag count) for the entries that follow.
# Tested on: colorectal tissue transcripts
# PROTOCOL DETAILS: SAGE of normal, adenoma and cancer colorectal tissue (transcript tag counts)
# Design: species or system human
# ASSAY CONDITIONS: SAGE library NC2
One number for each entry.

Answered examples (2):
CTTATGGTCC (chemistry not fully specified); 11
GGAGGCCGAG (chemistry not fully specified); 9

INPUT: Assign NC2 (SAGE tag count) to the following record: GCAGGGCCTC (chemistry not fully specified)
OUTPUT: 165

----------
# System: colorectal tissue transcripts
# PROTOCOL DETAILS: SAGE of normal, adenoma and cancer colorectal tissue (transcript tag counts)
# Parameters: species or system human
# ASSAY CONDITIONS: SAGE library CA2
ASSAY READOUT: CA2 (SAGE tag count)
Give bare numbers.

Answered examples (6):
GGCTGCCTGC (chemistry not fully specified); 2
GCAAGAAAGT (chemistry not fully specified); 1
GGGGCAGGGC (chemistry not fully specified); 31
GTCATCACCA (chemistry not fully specified; the letters are possibly those of the target site); 0
AATAAAGGCT (chemistry not fully specified); 4
ACCTGCATCC (chemistry not fully specified); 0

Required: CA2 (SAGE tag count), one value per sequence below.
1. CTGGCTATCC (chemistry not fully specified)
2. AAGAAGCAGG (chemistry not fully specified; the letters are possibly those of the target site)

OUTPUT:
[1, 3]

Required: CA2 (SAGE tag count), one value per sequence below.
1. ATACTCCACT (chemistry not fully specified)
2. GGCCCTGCAG (chemistry not fully specified)
3. CCTGCTTGTC (chemistry not fully specified)
4. CTGGATCTGG (chemistry not fully specified; the letters are possibly those of the target site)

OUTPUT:
1. 3
2. 1
3. 5
4. 10

Required: CA2 (SAGE tag count), one value per sequence below.
1. ATTTCAAGAT (chemistry not fully specified)
2. CTGGCCCTCG (chemistry not fully specified)
3. ACTGTGGCGG (chemistry not fully specified)

OUTPUT:
0
14
4

----------
# System: colorectal tissue transcripts
# PROTOCOL DETAILS: SAGE of normal, adenoma and cancer colorectal tissue (transcript tag counts)
# Parameters: species or system human
# ASSAY CONDITIONS: SAGE library AD1
ASSAY READOUT: AD1 (SAGE tag count)
Give bare numbers.

CTGGATCTGG (chemistry not fully specified; the letters are possibly those of the target site); 3
GCACCTGTCG (chemistry not fully specified); 0
ATATAATCTG (chemistry not fully specified); 1
GCCCAGTGGC (chemistry not fully specified); 8
CCCAACGCGC (chemistry not fully specified); 3

# context switch: different sequence, same AD1 (SAGE tag count)
INPUT: Assign AD1 (SAGE tag count) to the following record: GAGCACCGTG (chemistry not fully specified)
OUTPUT: 1

----------
# Tested on: colorectal tissue transcripts
# PROTOCOL DETAILS: SAGE of normal, adenoma and cancer colorectal tissue (transcript tag counts)
# Parameters: species or system human
# ASSAY CONDITIONS: normal colorectal tissue library 2
# Description: In an effort to identify potential molecular markers of early colorectal tumors, we have here analyzed gene expression in benign and malignant colorectal tumors in an unbiased and comprehensive fashion. […] The abundance of each tag provides a quantitative measure of the transcript level present within the mRNA population studied. […] For the current study, SAGE libraries derived from two samples of normal colonic epithelium, two colorectal adenomas, and two colorectal cancers were analyzed. […]
Checkbox rule: NC2 (SAGE tag count) lower than 20 = yes (1); NC2 (SAGE tag count) not lower than 20 = no (0).

Answered examples (3):
TAATTTGCAT (chemistry not fully specified); yes (1)
GTGTTGGGGG (chemistry not fully specified); yes (1)
TGGGGAGAGG (chemistry not fully specified); yes (1)

INPUT: Dear colleague, could you confirm whether NC2 (SAGE tag count) of TGACTAATTG (chemistry not fully specified) falls below 20? Thanks.
OUTPUT: yes (1)

INPUT: Dear colleague, could you confirm whether NC2 (SAGE tag count) of TTTGGTTTCA (chemistry not fully specified) falls below 20? Thanks.
OUTPUT: yes (1)

INPUT: Dear colleague, could you confirm whether NC2 (SAGE tag count) of TTTCTCGTCG (chemistry not fully specified) falls below 20? Thanks.
OUTPUT: yes (1)

INPUT: Dear colleague, could you confirm whether NC2 (SAGE tag count) of TGCTCCTACC (chemistry not fully specified; the letters are possibly those of the target site) falls below 20? Thanks.
OUTPUT: no (0)
